Assay: HNO production determined via N2O quantification (GC headspace analysis)
Assay type: physicochemical
Details: PBS, 37° C., 90 minutes incubation
Procedure: Nitrous oxide (N2O) is produced via the dimerization and dehydration of HNO, and is the most common marker for nitroxyl production (Fukuto et al., Chem. Res. Toxicol. 18:790-801 (2005)). […] All determinations used a batch of nominal 20 mL headspace vials with volumes pre-measured for sample uniformity (actual vial volume varied by <2.0% relative standard deviation (n=6)). […]
Assay endpoint: Relative N2O Yield (90 minutes incubation) (%)

{"columns": ["Molecule", "Test value"],
 "data": [
  ["Cc1cc(S(=O)(=O)NO)c(C)cc1Cl [Compound 18]", 56],
  ["CS(=O)(=O)c1cccc(S(=O)(=O)NO)c1 [Compound 2]", 82],
  ["CC(=O)Nc1ncc(S(=O)(=O)NO)s1 [Compound 76]", 76],
  ["CN1CCc2cc(Br)c(S(=O)(=O)NO)cc21 [Compound 67]", 59],
  ["O=S(=O)(NO)c1ncccc1Br [Compound 33, 3-Bromo-N-hydroxypyridine-2-sulfonamide]", 85.5],
  ["Cc1cc(S(=O)(=O)NO)c(C(F)(F)F)o1 [Compound 7]", 51],
  ["CCN(CC)C(=O)c1ccc(S(=O)(=O)NO)s1 [Compound 19]", 77],
  ["O=C(c1csc(S(=O)(=O)NO)c1)N1CCOCC1 [Compound 35]", 100],
  ["COc1ccc2cc(S(=O)(=O)NO)oc2c1 [Compound 13]", 86],
  ["O=S(=O)(NO)c1cc(C(F)(F)F)cc(C(F)(F)F)c1 [Compound 54]", 2],
  ["Cc1ccc(C)c(S(=O)(=O)NO)c1 [Compound 49]", 42],
  ["O=[N+]([O-])c1cc(S(=O)(=O)NO)sc1Cl [Compound 47]", 58],
  ["CS(=O)(=O)c1cc(S(=O)(=O)NO)cs1 [Compound 8]", 77],
  ["COC(=O)c1ccc(S(=O)(=O)NO)n1C [Compound 75]", 4],
  ["O=S(=O)(NO)c1cccnc1 [Compound 26, N-Hydroxypyridine-3-sulfonamide]", 73.5],
  ["COc1ccccc1S(=O)(=O)NO [Compound 25, N-Hydroxy-2-methoxybenzene-1-sulfonamide]", 7],
  ["O=S(=O)(NO)c1ccc(Br)s1 [Compound 45, 5-Bromo-N-hydroxythiophene-2-sulfonamide]", 76],
  ["Cc1ccc(S(=O)(=O)NO)c(F)c1 [Compound 14]", 48],
  ["COC(=O)c1cc(C)c(S(=O)(=O)NO)s1 [Compound 42]", 91],
  ["O=S(=O)(NO)c1ccc(-c2cnco2)s1 [Compound 40]", 50],
  ["CC(C)S(=O)(=O)c1ccccc1S(=O)(=O)NO [Compound 73]", 97],
  ["O=S(=O)(NO)C1=C(Cl)NC2SC=CN12 (centres unmarked) [Compound 37]", 51],
  ["Cc1cc(F)ccc1S(=O)(=O)NO [Compound 39]", 60],
  ["CN(C)C(=O)c1cc(S(=O)(=O)NO)c(Cl)cc1O [Compound 64]", 36],
  ["O=C(O)c1cc(S(=O)(=O)NO)ccc1O [Compound 60]", 9],
  ["O=S(=O)(NO)c1ccc(S(=O)(=O)c2ccccc2)s1 [Compound 43]", 82],
  ["COCc1ccc(Cl)c(S(=O)(=O)NO)c1 [Compound 68]", 86],
  ["O=S(=O)(NO)c1cc(Cl)c(Cl)s1 [Compound 12]", 29],
  ["O=S(=O)(NO)c1ccc2nsnc2c1 [Compound 15]", 59],
  ["O=S(=O)(NO)c1ccc(-c2ccno2)s1 [Compound 38]", 25],
  ["O=S(=O)(NO)c1ccco1 [Compound 83, N-Hydroxyfuran-2-sulfonamide]", 42],
  ["COC(=O)c1ccc(S(=O)(=O)NO)o1 [Compound 69]", 100],
  ["Cn1ccc(S(=O)(=O)NO)n1 [Compound 85]", 33.5],
  ["CC(=O)N1CCc2cc(Br)c(S(=O)(=O)NO)cc21 [Compound 9]", 53],
  ["O=S(=O)(NO)c1coc2ccccc12 [Compound 6, N-Hydroxy-1-benzofuran-3-sulfonamide]", 85],
  ["O=C(c1cc(S(=O)(=O)NO)cs1)N1CCOCC1 [Compound 28]", 74],
  ["NS(=O)(=O)c1cc(S(=O)(=O)NO)cs1 [Compound 34, 4-N-Hydroxythiophene-2,4-disulfonamide]", 100],
  ["O=S(=O)(NO)c1sc(Br)cc1Br [Compound 46]", 95],
  ["O=S(=O)(NO)c1cccc2ccoc12 [Compound 4, N-Hydroxy-1-benzofuran-7-sulfonamide]", 64],
  ["COc1ccc(S(=O)(=O)NO)cc1OC [Compound 52]", 11],
  ["CC(=O)N1CCc2cc(Cl)c(S(=O)(=O)NO)cc21 [Compound 11]", 55]
]}

meta.source: patent US10245249B2
